Entries and their fraction ligated
# System: F1*sub RNA substrate (template-directed ligation)
# Assay name: fraction ligated after 30 min (ligated reads / total reads); higher = more ligase activity; sequences stand for … in GAGACCGCAACTGAAAAGTTGT…AGTTCTGCACGTAGAAGCAAAAGGC
# Test parameters: 42 °C
Give the value as a plain number.

The sequence listed as TATCACTTGTCGTAAACACTTTGTGGGTTGA [3d2089] shows fraction ligated equal to 0.0322

The sequence listed as TTCACTTGTCGTAAGACACTTTGGTGGGTTG [3d500] shows fraction ligated equal to 0.0269

The sequence listed as TATCCTTGTCGTAAGACACTTTGGATGGTTA [3d1117] shows fraction ligated equal to 0.0143

***
The sequence listed as TATCACTTGTCTAAGACCTTTGATGGGTTGA [3d1865] shows fraction ligated equal to 0.732

The sequence listed as TACACTTGTCGTAAGACCTTTGATGGGTTGA [3d701] shows fraction ligated equal to 0.0781
